Listed here are compounds together with their documented Ratio IC50.
System: CCRF-CEM
Test: Selectivity ratio of IC50 for vinblastine-resistant human CCRF-CEM cells to IC50 for human CCRF-CEM cells
Format: functional
quantity_measured: Ratio IC50

1) Cl.O=C(Nc1ccc(N(CCCl)CCCl)cc1)Nc1cccc(C(=O)NCCN2CCCC2)c1	106.9
2) Cl.O=C(Nc1ccc(OCCN2CCOCC2)cc1)Nc1ccc(N(CCCl)CCCl)cc1	1.8
3) CN(C)CCCOc1ccc(NC(=O)Nc2ccc(N(CCCl)CCCl)cc2)cc1.Cl	10.9
4) Cl.O=C(Nc1ccc(N(CCCl)CCCl)cc1)Nc1cccc(C(=O)N2CCC(N3CCCCC3)CC2)c1	71.6
5) Cl.O=C(Nc1ccc(C(=O)NCCN2CCCCC2)cc1)Nc1ccc(N(CCCl)CCCl)cc1	67.8
6) O=C(Nc1ccc(N(CCCl)CCCl)cc1)Nc1cccc(OCCN2CCCC2)c1	12.1
7) CC[C@]1(O)C[C@@H]2CN(CCc3c([nH]c4ccccc34)[C@@](C(=O)OC)(c3cc4c(cc3OC)N(C)[C@H]3[C@@](O)(C(=O)OC)[C@H](OC(C)=O)[C@]5(CC)C=CCN6CC[C@]43[C@@H]65)C2)C1 [VINBLASTINE]	679.5
8) Cl.O=C(Nc1ccc(N(CCCl)CCCl)cc1)Nc1cccc(C(=O)NCCN2CCCCC2)c1	43.7
9) CN(C)CCNC(=O)c1cccc(NC(=O)Nc2ccc(N(CCCl)CCCl)cc2)c1.Cl	6.2
10) CN(C)CCCNC(=O)c1cccc(NC(=O)Nc2ccc(N(CCCl)CCCl)cc2)c1.Cl	151.8
11) Cl.O=C(Nc1ccc(C(=O)N2CCC(N3CCCCC3)CC2)cc1)Nc1ccc(N(CCCl)CCCl)cc1	143.7
12) CN(C)CCNC(=O)c1ccc(NC(=O)Nc2ccc(N(CCCl)CCCl)cc2)cc1.Cl	29.6
13) O=C(Nc1ccc(N(CCCl)CCCl)cc1)Nc1cccc(OCCN2CCCCC2)c1	3.8
14) Cl.O=C(Nc1ccc(OCCN2CCCCC2)cc1)Nc1ccc(N(CCCl)CCCl)cc1	7.47
15) CN(C)CCOc1cccc(NC(=O)Nc2ccc(N(CCCl)CCCl)cc2)c1	1.1
16) CC(=O)O[C@H]1C(=O)[C@@]2(C)[C@H]([C@H](OC(=O)c3ccccc3)[C@]3(O)C[C@H](OC(=O)[C@H](O)[C@@H](NC(=O)c4ccccc4)c4ccccc4)C(C)=C1C3(C)C)[C@]1(OC(C)=O)CO[C@@H]1C[C@@H]2O [PACLITAXEL]	980

* * *

Tested on: CCRF-CEM
Assay: Cytotoxicity against vinblastine-resistant human CCRF-CEM cells after 72 hrs by XTT assay
Type: functional, cell-based
Mark 1 only for IC50 values smaller than 2 µM; exact matches and larger values are 0.

1) CN(C)CCCOc1cccc(NC(=O)Nc2ccc(N(CCCl)CCCl)cc2)c1	0
2) CN(C)CCOc1cccc(NC(=O)Nc2ccc(N(CCCl)CCCl)cc2)c1	1
3) Cl.O=C(Nc1ccc(C(=O)NCCN2CCCC2)cc1)Nc1ccc(N(CCCl)CCCl)cc1	0
4) CN(C)CCCOc1ccc(NC(=O)Nc2ccc(N(CCCl)CCCl)cc2)cc1.Cl	1
5) Cl.O=C(Nc1ccc(C(=O)NCCN2CCCCC2)cc1)Nc1ccc(N(CCCl)CCCl)cc1	0
